Parameter: Activity. Scope: all listed entries.
Test system: NB-4
ASSAY: Cell cycle arrest in human NB4 cells assessed as accumulation of cells at G2/M phase at 1 uM incubated for 12 hrs by DAPI staining based flow cytometric analysis (reference value: 26 %)
Assay type: functional
OBSERVATION_TYPE: Activity (%)

smiles_input=Cc1cc2c(cc1C(=O)/C(Br)=C/c1ccc(C(=O)O)cc1)C(C)(C)CCC2(C)C endpoint_result=61
smiles_input=Cc1cc2c(cc1C(=O)/C(I)=C/c1ccc(C(=O)O)cc1)C(C)(C)CCC2(C)C endpoint_result=24
smiles_input=Cc1cc2c(cc1C(=O)/C(Cl)=C/c1ccc(C(=O)O)cc1)C(C)(C)CCC2(C)C endpoint_result=41
smiles_input=CC1=C(/C=C/C(C)=C/C=C/C(C)=C/C(=O)O)C(C)(C)CCC1 endpoint_result=23

====

EXPERIMENTAL_SYSTEM: Retinoic acid receptor RXR-alpha (Homo sapiens, UniProt P19793)
Sequence (P19793 whole entry): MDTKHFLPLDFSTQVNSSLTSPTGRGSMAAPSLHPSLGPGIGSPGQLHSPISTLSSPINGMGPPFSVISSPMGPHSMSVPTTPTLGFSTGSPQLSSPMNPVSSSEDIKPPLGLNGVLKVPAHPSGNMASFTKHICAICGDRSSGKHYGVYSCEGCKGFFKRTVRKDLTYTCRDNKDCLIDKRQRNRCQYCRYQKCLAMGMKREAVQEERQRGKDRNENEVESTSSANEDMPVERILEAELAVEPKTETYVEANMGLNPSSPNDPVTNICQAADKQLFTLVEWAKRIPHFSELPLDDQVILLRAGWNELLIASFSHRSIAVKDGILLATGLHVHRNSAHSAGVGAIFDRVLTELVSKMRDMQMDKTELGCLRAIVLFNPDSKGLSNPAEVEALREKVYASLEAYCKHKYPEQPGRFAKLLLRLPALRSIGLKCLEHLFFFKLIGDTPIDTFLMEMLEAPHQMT
pKd: −log10 of the molar value.
OBSERVATION_TYPE: pKd

smiles_input=Cc1cc2c(cc1-c1cc(/C=C/C(=O)O)ccc1O)C(C)(C)CCC2(C)C experimental_system="Retinoic acid receptor RXR-alpha (Homo sapiens, UniProt P19793)" endpoint_result=6.26
